# shrunken log2 fold change per record follows
System: Escherichia coli TOP10
Assay: shrunken log2 fold change of peptide-encoding DNA abundance (4.5 h post-induction vs induction); higher = less antimicrobial activity (less host growth inhibition)
Conditions: time post-induction: 4.5 h; library: site-saturation at positions 5, 18, 19, 20

{"columns": ["SEQUENCE_TEXT", "shrunken log2 fold change"],
 "data": [
  ["RRIRFRPPRLPRPRPRPVHAPRP", 0.184],
  ["RRIRLRPPRLPRPRPRPLMFPRP", -0.215],
  ["RRIRCRPPRLPRPRPRPIPKPRP", 0.326],
  ["RRIRFRPPRLPRPRPRPWDIPRP", -0.0124],
  ["RRIRERPPRLPRPRPRPKPTPRP", 0.148],
  ["RRIRKRPPRLPRPRPRPNDMPRP", 0.194],
  ["RRIRWRPPRLPRPRPRPFHGPRP", -0.229],
  ["RRIRRRPPRLPRPRPRPVAEPRP", 0.663],
  ["RRIRMRPPRLPRPRPRPQIMPRP", -0.0466],
  ["RRIRFRPPRLPRPRPRPPTLPRP", -0.0735],
  ["RRIRHRPPRLPRPRPRPRWMPRP", -0.209],
  ["RRIRQRPPRLPRPRPRPRPRPRP", 0.414],
  ["RRIRARPPRLPRPRPRPRMEPRP", 0.539],
  ["RRIRRRPPRLPRPRPRPERFPRP", 0.293],
  ["RRIRQRPPRLPRPRPRPLLTPRP", -0.235],
  ["RRIRQRPPRLPRPRPRPHHHPRP", -0.403],
  ["RRIRLRPPRLPRPRPRPEGYPRP", 0.104],
  ["RRIRNRPPRLPRPRPRPDCRPRP", -0.119],
  ["RRIRPRPPRLPRPRPRPWVIPRP", 0.0892],
  ["RRIRKRPPRLPRPRPRPSQGPRP", 0.0922],
  ["RRIRWRPPRLPRPRPRPGFTPRP", 0.132],
  ["RRIRMRPPRLPRPRPRPKIAPRP", 0.244],
  ["RRIRERPPRLPRPRPRPEEYPRP", -0.4],
  ["RRIRWRPPRLPRPRPRPWPSPRP", 0.018],
  ["RRIRERPPRLPRPRPRPNQLPRP", -0.0673],
  ["RRIRHRPPRLPRPRPRPLNKPRP", -0.677],
  ["RRIRPRPPRLPRPRPRPASAPRP", 0.441],
  ["RRIRTRPPRLPRPRPRPHSQPRP", -0.101],
  ["RRIRQRPPRLPRPRPRPEWRPRP", -0.00139],
  ["RRIRWRPPRLPRPRPRPESVPRP", 0.192],
  ["RRIRWRPPRLPRPRPRPGSKPRP", 0.0611],
  ["RRIRYRPPRLPRPRPRPNVIPRP", -0.338]
]}

###

Test system: Escherichia coli TOP10;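 note: peptides expressed intracellularly from a pBAD plasmid library in pooled LB shake-flask culture, induced with 0.3% L-arabinose, DNA abundance read by NGS, three biological replicates, DESeq2 with apeglm shrinkage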
Test: shrunken log2 fold change of peptide-encoding DNA abundance (4.5 h post-induction vs induction); higher = less antimicrobial activity (less host growth inhibition)
Details: time post-induction: 4.5 h; library: site-saturation at positions 5, 18, 19, 20
# label = bin(measured shrunken log2 fold change), where bins are Low: < -0.2; Medium: ≥ -0.2 and < 0.01; High: ≥ 0.01

{"columns": ["SEQUENCE_TEXT", "CLASS_LABEL"],
 "data": [
  ["RRIRPRPPRLPRPRPRPADQPRP", "Medium"],
  ["RRIRPRPPRLPRPRPRPTVHPRP", "Medium"],
  ["RRIRERPPRLPRPRPRPYTNPRP", "Medium"],
  ["RRIRSRPPRLPRPRPRPNYRPRP", "Low"],
  ["RRIRARPPRLPRPRPRPLWKPRP", "High"],
  ["RRIRFRPPRLPRPRPRPFMAPRP", "Low"],
  ["RRIRKRPPRLPRPRPRPSDNPRP", "High"],
  ["RRIRLRPPRLPRPRPRPPDNPRP", "High"],
  ["RRIRRRPPRLPRPRPRPETIPRP", "High"],
  ["RRIRHRPPRLPRPRPRPLYPPRP", "Low"],
  ["RRIRQRPPRLPRPRPRPDHKPRP", "Medium"],
  ["RRIRMRPPRLPRPRPRPDYEPRP", "Medium"],
  ["RRIRGRPPRLPRPRPRPYSLPRP", "Medium"],
  ["RRIRARPPRLPRPRPRPKDYPRP", "Low"]
]}
